Overview of recorded pIC50 for various compounds
- Test system: SKBR3 (PI3Kα-Wild Type) cell line
- Measurement Notes: HTRF phospho-AKT(S473) cell assay in SKBR3 cells
- Format: cell-based, human
- Condition Parameters: Homo sapiens, SK-BR-3; HTRF phospho-AKT(S473), SKBR3 (PI3Kα-Wild Type) cells, 2 hours compound incubation, PDGF-BB stimulated
pIC50: −log10 of the molar value.

Some solved cases for reference:
- Compound: "Cc1cc([C@@H](C)Nc2ccc(Cl)nc2C(=O)NS(C)(=O)=O)c2nc(-c3ccc4[nH]ncc4c3)n(C)c(=O)c2c1 [Compound 832]"
  Study System: "SKBR3 (PI3Kα-Wild Type) cell line"
  Measured Endpoint: "pIC50"
  Recorded Result: "5.30 to 6.00"
- Compound: "Cc1cc([C@@H](C)Nc2ccc(Cl)nc2C(=O)NS(C)(=O)=O)c2nc(N3CCC(n4ncnc4C)CC3)n(C)c(=O)c2c1 [Compound 549]"
  Study System: "SKBR3 (PI3Kα-Wild Type) cell line"
  Measured Endpoint: "pIC50"
  Recorded Result: "5.30 to 6.00"
- Compound: "COc1cc(N2CCN(c3nc4c([C@@H](C)Nc5ccc(Cl)nc5C(=O)NS(C)(=O)=O)cc(C)cc4c(=O)n3C)CC2)nc(C)n1 [Compound 718]"
  Study System: "SKBR3 (PI3Kα-Wild Type) cell line"
  Measured Endpoint: "pIC50"
  Recorded Result: "≤ 5.30"
- Compound: "Cc1cc([C@@H](C)Nc2ccc(Cl)nc2C(=O)NS(C)(=O)=O)c2nc(N3Cc4ccc(-c5ccnc(C)c5)cc4C3)n(C)c(=O)c2c1 [Compound 709]"
  Study System: "SKBR3 (PI3Kα-Wild Type) cell line"
  Measured Endpoint: "pIC50"
  Recorded Result: "≤ 5.30"
- Compound: "Cc1cc([C@@H](C)Nc2ccc(Cl)nc2C(=O)NS(C)(=O)=O)c2nc(N3CCC(c4cnc(C)nc4)CC3)n(C3CC3)c(=O)c2c1 [Compound 607]"
  Study System: "SKBR3 (PI3Kα-Wild Type) cell line"
  Measured Endpoint: "pIC50"
  Recorded Result: "5.30 to 6.00"
- Compound: "Cc1cc([C@@H](C)Nc2ccc(Cl)nc2C(=O)NS(C)(=O)=O)c2nc(N3CCn4ncc(F)c4C3)n(C)c(=O)c2c1 [Compound 711]"
  Study System: "SKBR3 (PI3Kα-Wild Type) cell line"
  Measured Endpoint: "pIC50"
  Recorded Result: "5.30 to 6.00"
- Compound: "Cc1cc([C@@H](C)Nc2ccc(Cl)nc2C(=O)NS(C)(=O)=O)c2nc(N3CCN(c4cc(F)cnc4C)CC3)n(C)c(=O)c2c1 [Compound 730]"
  Study System: "SKBR3 (PI3Kα-Wild Type) cell line"
  Measured Endpoint: "pIC50"
  Recorded Result: "5.30 to 6.00"
- Compound: "Cc1cc([C@@H](C)Nc2ccc(Cl)nc2C(=O)NS(C)(=O)=O)c2nc(N3CC[C@H](Oc4ccc(C)nn4)C3)n(C)c(=O)c2c1 [Compound 527]"
  Study System: "SKBR3 (PI3Kα-Wild Type) cell line"
  Measured Endpoint: "pIC50"
  Recorded Result: "5.30 to 6.00"

Given the entry Cc1cc([C@@H](C)Nc2ccc(Cl)nc2C(=O)NS(C)(=O)=O)c2nc(-c3ccc(-c4ccn(C)n4)c(F)c3)n(C)c(=O)c2c1 [Compound 787] , report its measured pIC50. 5.30 to 6.00

Next compound up: Cc1cc([C@@H](C)Nc2ccc(Cl)nc2C(=O)NS(C)(=O)=O)c2nc(N3C[C@@H]4[C@H](C3)[C@H]4c3ccnc(N(C)C)c3)n(C)c(=O)c2c1 [Compound 745] ≤ 5.30
